# assay overview: chemical genetic growth profiling, strain panel (AID 1159580);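 also: tested at 20 µM; growth read once vehicle control cultures reached saturation at 30 °C; lower values mean less growth of the strain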
# condition context: S. cerevisiae deletion strains, growth OD, locus YGL173C, strain kem1
The whole screen tested about 5,500 compounds, of which about 2,000 (36%) were called active. Another 18% or so got no clear call; they are omitted. Rule as the data show it: active = normalized growth mostly below about 0.91 (no sharp cut-off); inconclusive = no clear call, values can overlap the other calls; inactive = mostly above about 0.92. The list shows a part of the results.
Choose one outcome from this list and give only that: active, inactive

Ask: Write down the call the test reported for this compound. Item: C/C(=C\C(=O)OCCCCCCCCC(=O)O)C[C@@H]1OC[C@H](C[C@@H]2O[C@H]2[C@@H](C)[C@H](C)O)[C@@H](O)[C@H]1O
Reply: inactive

Ask: Test call for this compound, please: CC(=O)N(O)CCCCCNC(=O)CCC(=O)N(O)CCCCCNC(=O)CCC(=O)N(O)CCCCCN
Reply: inactive

Ask: # lookup: test call for COc1cccc(-c2cc(=O)c3ccc(OC)cc3o2)c1
Reply: inactive

Ask: Would you mind telling me which call this test gave COc1ccc2cc3[n+](cc2c1OC)CCc1cc2c(cc1-3)OCO2 ?
Reply: inactive

Ask: What classification did COc1cc([C@@H]2c3cc4c(cc3C(O[C@@H]3O[C@@H]5CO[C@@H](c6cccs6)OC5[C@H](O)[C@H]3O)C3COC(=O)[C@@H]32)OCO4)cc(OC)c1O (stereo partly specified) end up with in this test?
Reply: inactive

Ask: Would you mind telling me which call this test gave CC[N+]1(C)CCCC(OC(=O)C(O)(c2ccccc2)c2ccccc2)C1 (stereo unspecified) ?
Reply: inactive

Ask: Would you mind telling me which call this test gave CC(=O)Nc1ccc(OC(=O)c2ccccc2O)cc1 ?
Reply: inactive

Ask: Give the logged outcome of this assay for the following compound: COCCOC(=O)C1=C(C)NC(C)=C(C(=O)OC(C)C)C1c1cccc([N+](=O)[O-])c1 (stereo unspecified)
Reply: inactive

Ask: What is the recorded call for this compound in the test? S=c1ccss1
Reply: inactive

Ask: Give the logged outcome of this assay for the following compound: CC1(C)O[C@@H]2CC3C4C[C@H](F)C5=CC(=O)C=CC5(C)C4C(O)CC3(C)[C@]2(C(=O)CO)O1 (stereo partly specified)
Reply: inactive

Ask: Outcome? N[C@H](CO)Cc1ccccc1
Reply: inactive

Ask: What is the recorded call for this compound in the test? N[C@@H]1CONC1=O
Reply: inactive

Ask: What was the test verdict on COc1cccc2c1cc([N+](=O)[O-])c1c(C(=O)O)cc3c(c12)OCO3 ?
Reply: inactive

Ask: In this assay, the call recorded for O=c1cc(-c2ccc(O)c(O)c2)oc2ccccc12 was what?
Reply: inactive

Ask: What classification did Nc1ccc(C(=O)O)c(O)c1 end up with in this test?
Reply: inactive

Ask: Hi, do you know how COc1c(O)cccc1O came out in this test?
Reply: inactive

Ask: Identify the outcome logged in this assay for the compound shown: CC1(C)O[C@@H]2CC3C4C[C@H](F)C5=CC(=O)C=C[C@]5(C)[C@@]4(F)[C@@H](O)C[C@]3(C)[C@]2(C(=O)CO)O1 (stereo partly specified)
Reply: inactive

Ask: # fetch the recorded call for COC(=O)C1=C(C)NC(C)=C(C(=O)OC)C1c1ccccc1[N+](=O)[O-] here
Reply: active

Ask: Given NC(=O)CC[C@@H](N)C(=O)O , state the outcome it received in this test.
Reply: inactive

Ask: Called result for CC1=C2C(=CO[C@H](C)[C@H]2C)C(=O)C(C(=O)O)=C1O
Reply: inactive

Ask: Outcome? OC1C(O)C(O)C(O)C(O)C1O (stereo unspecified)
Reply: inactive

Ask: In this assay, the call recorded for O=C(O)c1cc(=O)c2ccccc2o1 was what?
Reply: inactive

Ask: # outcome recorded in this test, key = O=c1c(-c2cc(O)c(O)c(O)c2)coc2cc(O)c(O)c(O)c12
Reply: active

Ask: Just curious, what result did CC(C)(Oc1ccc(Cl)cc1)C(=O)O get here?
Reply: inactive

Ask: I'd appreciate the recorded outcome for O=c1c2ccccc2oc2ccccc12 from this test.
Reply: inactive

Ask: Please let me know the test result on file for CC(C)Oc1ccc2c(=O)cc(-c3ccccc3)oc2c1 .
Reply: inactive

Ask: Call for entry CC1=CCc2c(cc3oc(C)cc(=O)c3c2O)OC1 :
Reply: inactive

Ask: Hello, I am checking results. What call was entered for O=C1CCc2cc(OCCCCc3nnnn3C3CCCCC3)ccc2N1 ?
Reply: inactive

Ask: Assay outcome for COc1cc2c(cc1OC)-c1cc3ccc(OC)c(OC)c3c[n+]1CC2 : what was it?
Reply: inactive

Ask: Short answer needed: outcome of this test for CC(=O)O[C@H]1C[C@@H](O)C(C)(C)C2C[C@@H](OC(C)=O)[C@]3(C)C(CC[C@@]4(C)[C@H](c5ccoc5)OC(=O)C5OC543)[C@]21C (stereo partly specified) ?
Reply: inactive

Ask: Hello, I am checking results. What call was entered for CC(=O)CC(c1ccccc1)c1c(O)c2ccccc2oc1=O (stereo unspecified) ?
Reply: inactive

Ask: Entry O=C(O)c1nc2cc(Cl)c(Cl)cc2[nH]c1=O : call = ?
Reply: inactive

Ask: # lookup: test call for CN1CCOC(c2ccccc2)c2ccccc2C1 (stereo unspecified)
Reply: inactive

Ask: Lab log entry: COc1ccc(-c2cc(=O)c3ccccc3o2)cc1 — outcome as called in the assay?
Reply: active

Ask: For this compound, state the assay outcome: COc1ccc(-c2cc(=O)c3c(OC)c(OC)c(OC)c(OC)c3o2)cc1
Reply: inactive

Ask: For NS(=O)(=O)c1cc2c(cc1C(F)(F)F)NCNS2(=O)=O , which call appears in the assay record?
Reply: inactive

Ask: I would be grateful if you could indicate the recorded call for O=c1[nH]c2cc(Cl)c(Cl)cc2[nH]c1=O .
Reply: inactive

Ask: Returns: the outcome recorded for COc1cc([C@@H]2c3cc4c(cc3[C@H](O)[C@H]3COC(=O)[C@@H]23)OCO4)cc(OC)c1OC in this assay.
Reply: inactive

Ask: How did this test come out for CC(C)(C)C(=O)C(Oc1ccc(Cl)cc1)n1cncn1 (stereo unspecified) ?
Reply: active

Ask: Called result for [N-]=[N+]=CC(=O)OCC(N)C(=O)O (stereo unspecified)
Reply: inactive

Ask: Status in this test for COc1ccc(-c2cc(=O)c3ccccc3o2)cc1OC ?
Reply: active
